# Test system: MS2 coat protein
# experiment notes: apparent KD of MS2 coat protein; designed switch direction (-1 OFF switch, 1 ON switch): 1; higher = weaker reporter binding
# cond: input ligand: none
Entries and their apparent KD of MS2 coat protein
Give a bare numeral; the unit nM is implied.

### Prompt Please give the documented apparent KD of MS2 coat protein of UUGAAGAAUUAAGGAUAUCGAGUCGUCAGAUUAUACAUGAGGAUCACCCAUGUGGGUUGCGGUAUCGAGAAGGUAAAUUACAAG [JL JR Sub099 mod 5] (Eterna round: R96, puzzle: Same State NG 2)
### Response 60

### Prompt Please give the documented apparent KD of MS2 coat protein of GCUAGGAUAUGAAGAGGAUCACCCUUUAGAAGGAGCAUUAGCUAGGAUAUGAAGAGGAUCACCCUUUAGAAGGAGCACUACUCU [pwkr ssNG3 DX 2xF5 +2xFMN.7] (Eterna round: R96, puzzle: Same State NG 3)
### Response 292

### Prompt Please give the documented apparent KD of MS2 coat protein of GGAGCCGGUACUGAGGAUAUUCAUAUUAAAACAUGAGGAUCACCCAUGUAGGCCAGAAGGCCUUGGGAGAAGGCAGACCAGCUCG [Atgexeedri] (Eterna round: R96, puzzle: Same State 2)
### Response 271

### Prompt Please give the documented apparent KD of MS2 coat protein of GCAGGACGGUAAAACAUCUCACAUGAGGAUCACCCAUGUCGUGAGGAUAUGGAUCCUAAUUGGAUCCAGAAGGCACGGUCCUGC [Fiskers NG3ss - 29] (Eterna round: R96, puzzle: Same State NG 3)
### Response 13.6

### Prompt Please give the documented apparent KD of MS2 coat protein of GUUACAUGAGGAUCACCCAUGUAUGUGUGGGAGUAAGUGUCUUAGGAUAUCUAGUAUUUAAUUUUAGAGAAGGAAGAUUGUUGU [JMF's solution 69] (Eterna round: R96, puzzle: Same State NG 3)
### Response 134

### Prompt Please give the documented apparent KD of MS2 coat protein of UGGCUCAGACGAGGAUAUACGUGGUCACAUGAGGAUCACCCAUGUCUCGAGCUUCGGCUCGAGGCGUAGAAGGCGUCUGAGCCA [SSNG2/6-A2] (Eterna round: R96, puzzle: Same State NG 2)
### Response 218

### Prompt Please give the documented apparent KD of MS2 coat protein of AUUACUAACAUAGGAUAUCAUGCGAAAAUUGCGUGAGAAGGGUGGACGCUGUCAUUCUCGGAGGACAUGAGGAUCACCCAUGUC [SameState NG1 #71] (Eterna round: R96, puzzle: Same State NG 1)
### Response 90.7

### Prompt Please give the documented apparent KD of MS2 coat protein of ACAUGAGACUCAGGAUAUGGUGUACCUACAUGUGACAUGAGGAUCACCCAUGUGGUAAGUAUGACUCAGAAGGGAGAGAUAUGU [Equivalance 76 - Jieux - Same State NG 2] (Eterna round: R96, puzzle: Same State NG 2)
### Response 171

### Prompt Please give the documented apparent KD of MS2 coat protein of CUGCGUAACACAGGAUAUACCUCCGCAAGGAACGUAGAAGGGUGAGUAGCAGACAUGAGGAUCACCCAUGUAAAGGCCAAGGCC [Enqudiso] (Eterna round: R96, puzzle: Same State NG 1)
### Response 98
